- Test system: EGFR WT dependent A431 cells
- METHOD DESCRIPTION: Tumor cell proliferation assay A431 (EGFR WT dependent)
- Assay type: cell-based
- RECORDED CONDITIONS: Homo sapiens, A-431; 72 h, CellTiter-Glo; read-out: GI50 A431 EGFR wt amp.
- Description: For proliferation assays, NCI-H2170 (HER2 wild type), NCI-H2170 HER2 YVMA and EGFR WT dependent A431 cells were used. […] CellTiter-Glo® Luminescent Cell Viability Assay (Promega) was performed and chemoluminescence was measured by using the multilabel Plate Reader VICTOR X4. The raw data were imported into and analyzed with the Boehringer Ingelheim proprietary software MegaLab (curve fitting based on the program PRISM, GraphPad Inc.).
VALUE KIND: GI50

The following compounds have reported results that may help.
C=CC(=O)N1CCN(c2ncc3ncnc(Nc4ccc(Oc5ccc6c(c5)ncn6C)c(C)c4)c3n2)CC1 [Compound I-1] : > 5 µM
C=CC(=O)N1CCN(c2ncc3ncnc(Nc4ccc(Oc5ccc6c(c5)ncn6C)c(Cl)c4)c3n2)CC1 [Compound I-4] : > 5 µM
C=CC(=O)N1CCN(c2ncc3ncnc(Nc4ccc(Oc5ccc6c(c5)ncn6C)c(Br)c4)c3n2)CC1 [Compound I-5] : 2.88 µM
C=CC(=O)N1CCN(c2ncc3ncnc(Nc4ccc(Oc5ccc6c(c5)ncn6C)c(OC)c4)c3n2)CC1 [Compound I-3] : > 5 µM

GI50 lookup needed for C=CC(=O)N1CCN(c2ncc3ncnc(Nc4cc(Cl)c(Oc5ccc6c(c5)ncn6C)c(Cl)c4)c3n2)CC1 [Compound I-7] , thanks.
> 5 µM
